Hi! I'm sharing some HepSE_hepatic necrosis results obtained with Hepatotoxicity.
Measurement type: HepSE_hepatic necrosis

{"columns": ["Molecule", "System under test", "Measurement type", "Observed value"],
 "data": [
  ["Nc1nc(/C(=C/CC(=O)O)C(=O)N[C@@H]2C(=O)N3C(C(=O)O)=CCS[C@H]23)cs1", "Hepatotoxicity", "HepSE_hepatic necrosis", 0],
  ["CCCc1nc2c(C)cc(-c3nc4ccccc4n3C)cc2n1Cc1ccc(-c2ccccc2C(=O)O)cc1", "Hepatotoxicity", "HepSE_hepatic necrosis", 0],
  ["Cc1nccn1CC1CCc2c(c3ccccc3n2C)C1=O (configuration not stated)", "Hepatotoxicity", "HepSE_hepatic necrosis", 0],
  ["CC1COc2c(N3CCN(C)CC3)c(F)cc3c(=O)c(C(=O)O)cn1c23 (configuration not stated)", "Hepatotoxicity", "HepSE_hepatic necrosis", 1],
  ["CO[C@H]1/C=C/O[C@@]2(C)Oc3c(C)c(O)c4c(O)c(c5c(nc6cc(C)ccn65)c4c3C2=O)NC(=O)/C(C)=C\\C=C\\[C@H](C)[C@H](O)[C@@H](C)[C@@H](O)[C@@H](C)[C@H](OC(C)=O)[C@@H]1C", "Hepatotoxicity", "HepSE_hepatic necrosis", 0],
  ["Cc1ncc2n1-c1ccc(Cl)cc1C(c1ccccc1F)=NC2", "Hepatotoxicity", "HepSE_hepatic necrosis", 0],
  ["Cc1ccc(NC(=O)c2ccc(CN3CCN(C)CC3)cc2)cc1Nc1nccc(-c2cccnc2)n1", "Hepatotoxicity", "HepSE_hepatic necrosis", 1]
]}
